assay: NCI Yeast Anticancer Drug Screen. Data for the bub3 strain (AID 167); details: S. cerevisiae bub3 mutant strain, at 5.0 µM (retest, dose inferred, filed as 0.5), hits give high values
About 79,000 compounds went through this panel and 15% of them were active in at least one assay; those are over-represented in the sample as a whole.
// growth inhibition lookup, one value per entry
Entry rule: numbers only, all in %.

Report growth inhibition for `O=[N+]([O-])/C=C/c1cc2ccc3ccccc3c2[nH]1` please.
50

Thanks! And `O=C(Cc1ccccc1)NNc1nc(NNC(=O)c2ccncc2)nc(Nc2ccc(Cl)cc2)n1` ?
-7

CC1=NN(C(=O)CC(=O)NC(=O)/C=C\c2ccccc2)C(=O)C1N=Nc1ccc([N+](=O)[O-])cc1 (stereo not given) ?
-4
